# tgt: SHP2 (Homo sapiens, UniProt Q06124)
# Sequence (Q06124 whole entry): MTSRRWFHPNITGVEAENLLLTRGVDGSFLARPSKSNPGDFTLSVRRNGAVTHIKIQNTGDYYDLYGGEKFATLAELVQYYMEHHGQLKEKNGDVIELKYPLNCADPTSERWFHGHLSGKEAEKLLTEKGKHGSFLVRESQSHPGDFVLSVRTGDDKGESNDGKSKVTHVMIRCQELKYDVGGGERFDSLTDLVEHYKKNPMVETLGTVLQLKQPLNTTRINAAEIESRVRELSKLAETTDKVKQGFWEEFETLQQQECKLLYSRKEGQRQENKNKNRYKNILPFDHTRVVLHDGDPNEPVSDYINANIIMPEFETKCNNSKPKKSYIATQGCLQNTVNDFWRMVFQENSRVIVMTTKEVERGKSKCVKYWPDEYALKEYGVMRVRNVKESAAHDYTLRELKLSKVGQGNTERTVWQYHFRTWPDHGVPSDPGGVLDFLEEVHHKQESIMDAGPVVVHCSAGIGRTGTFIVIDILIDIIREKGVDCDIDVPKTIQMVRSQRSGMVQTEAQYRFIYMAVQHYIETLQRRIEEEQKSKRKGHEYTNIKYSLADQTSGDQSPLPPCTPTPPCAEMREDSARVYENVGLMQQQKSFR
# assay-notes: SHP2 allosteric inhibitor enzyme activity assay (DiFMUP fluorescence)
# Assay type: biochemical
# measurement-context: class symbols
IC50 by entry:

Solved cases (2 shown):
N[C@@H]1c2ccccc2CC12CCN(c1nc3[nH]nc(C4(c5cccc6ccccc56)CC4)c3c(=O)[nH]1)CC2 [Example 77] :: ≤ 20 nM
C[C@@H]1OCC2(CCN(c3nc4[nH]nc(C5(c6cccnc6)CC5)c4c(=O)[nH]3)CC2)[C@@H]1N [Example 275] :: 20 to 60 nM

For COc1cc(C2(c3n[nH]c4nc(N5CCC6(CC5)CO[C@@H](C)[C@H]6N)[nH]c(=O)c34)CC2)ccc1F [Example 289] , what is its reported IC50?
> 60 nM

For Cn1ccc2c1CCC=C2c1n[nH]c2nc(N3CCC4(CC3)Cc3ccccc3[C@H]4N)[nH]c(=O)c12 [Example 120] , what is its reported IC50?
≤ 20 nM

For C[C@@H]1OCC2(CCN(c3nc4[nH]nc(C5(c6cc7ccccc7[nH]6)CC5)c4c(=O)[nH]3)CC2)[C@@H]1N [Example 285] , what is its reported IC50?
> 60 nM

For CN(C)c1nccc(C2(c3n[nH]c4nc(N5CCC6(CC5)Cc5ccccc5[C@H]6N)[nH]c(=O)c34)CC2)c1Cl [Example 61] , what is its reported IC50?
≤ 20 nM

For N[C@@H]1c2ccccc2CC12CCN(c1nc3[nH]nc(C4(c5ccnc6ccccc56)CC4)c3c(=O)[nH]1)CC2 [Example 78] , what is its reported IC50?
≤ 20 nM

* * *

# tgt: UniProtKB Q06124
# assay-notes: SHP2 allosteric inhibitor enzyme activity assay (DiFMUP fluorescence)
# Format: biochemical
# measurement-context: class symbols
pIC50: −log10 of the molar value.
property-label: pIC50

Solved cases (2 shown):
Cn1ncc2c1CCC=C2c1n[nH]c2nc(N3CCC4(CC3)Cc3ccccc3[C@H]4N)[nH]c(=O)c12 [Example 131] :: ≥ 7.70
COc1cc(F)cc(C2(c3n[nH]c4nc(N5CCC6(CC5)CO[C@@H](C)[C@H]6N)[nH]c(=O)c34)CC2)c1 [Example 288] :: < 7.22

For C[C@@H]1OCC2(CCN(c3cnc4c(C5(c6ccsc6)CC5)n[nH]c4n3)CC2)[C@@H]1N [Example 268] , what is its reported pIC50?
7.22 to 7.70

For N[C@@H]1c2ccccc2CC12CCN(c1nc3[nH]nc(C4(c5ccc(O)cc5)CC4)c3c(=O)[nH]1)CC2 [Example 234] , what is its reported pIC50?
≥ 7.70

For N[C@@H]1c2ccccc2CC12CCN(c1nc3[nH]nc(C4(c5cnn(-c6ccccc6)c5)CC4)c3c(=O)[nH]1)CC2 [Example 56] , what is its reported pIC50?
7.22 to 7.70

For N[C@@H]1CCCC12CCN(c1nc3[nH]nc(C4(c5ccccc5)CC4)c3c(=O)[nH]1)CC2 [Example 321] , what is its reported pIC50?
7.22 to 7.70

For C[C@@H]1OCC2(CCN(c3nc4[nH]nc(C5(c6cccc(F)c6)CC5)c4c(=O)[nH]3)CC2)[C@@H]1N [Example 293] , what is its reported pIC50?
7.22 to 7.70

For N[C@@H]1c2ccccc2CC12CCN(c1nc3[nH]nc(C4(c5ccnc(OC(F)F)c5)CC4)c3c(=O)[nH]1)CC2 [Example 53] , what is its reported pIC50?
≥ 7.70
